The values you see were collected from PubChem BioAssay (EPA / NIEHS).

# test-description: IUF_NPC5_oligodendrocyte_differentiation_120hr: Leibniz Research Institute for Environmental Medicine (IUF) 120-hour Oligodendrocyte Differentiation Assay (NPC5) (AID 2284304);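 further: primary human fetal neural progenitor spheres plated to migrate and differentiate; share of O4-positive cells among Hoechst nuclei found by CNN image analysis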
Records with an inconclusive call do not appear. Activity calls are given as the source filed them. How the source made its calls: active means hit-call score of the fitted dose curve at least 0.9, where 1 is the maximum; inconclusive means response in the unintended direction; inactive means score below 0.9.
observable: AC50

Examples from the recorded data:
molecule | AC50
O=[N+]([O-])/N=C1\NCCN1Cc1ccc(Cl)nc1 | inactive
O=S(=O)(O)C(F)(F)C(F)(F)C(F)(F)C(F)(F)C(F)(F)C(F)(F)C(F)(F)C(F)(F)F | inactive
CC1(C)C(C=C(Cl)Cl)C1C(=O)OC(C#N)c1ccc(F)c(Oc2ccccc2)c1 (configuration not stated) | 227 nM (active)
CC(C)N(C(=O)COc1nnc(C(F)(F)F)s1)c1ccc(F)cc1 | inactive
COP(=S)(OC)Oc1ccc([N+](=O)[O-])cc1 | inactive

Reported AC50, molecule CC[C@H](C)[C@H]1O[C@]2(C=C[C@@H]1C)C[C@@H]1C[C@@H](C/C=C(\C)[C@@H](O[C@H]3C[C@H](OC)[C@@H](O[C@H]4C[C@H](OC)[C@@H](O)[C@H](C)O4)[C@H](C)O3)[C@@H](C)/C=C/C=C3\CO[C@@H]4[C@H](O)C(C)=C[C@@H](C(=O)O1)[C@]34O)O2 (tested in a mixture with another compound) : ____
444 nM (active)

Reported AC50, molecule CC1(c2ccc(Oc3ccccc3)cc2)OC(=O)N(Nc2ccccc2)C1=O (configuration not stated) : ____
1610 nM (active)

====

# Read-out: Glyceraldehyde-3-phosphate dehydrogenase (Homo sapiens) (UniProt P04406)
# Sequence (P04406 whole entry, looked up): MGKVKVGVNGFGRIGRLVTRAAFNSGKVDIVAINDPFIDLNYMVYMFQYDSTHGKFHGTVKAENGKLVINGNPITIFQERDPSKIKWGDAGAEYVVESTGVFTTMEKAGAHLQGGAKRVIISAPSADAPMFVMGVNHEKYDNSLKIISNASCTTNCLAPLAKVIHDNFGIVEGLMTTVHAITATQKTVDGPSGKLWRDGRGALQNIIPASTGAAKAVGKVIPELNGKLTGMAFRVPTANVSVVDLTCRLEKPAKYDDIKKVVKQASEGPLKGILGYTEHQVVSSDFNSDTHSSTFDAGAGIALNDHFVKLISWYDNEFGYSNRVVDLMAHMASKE
# test-description: CLD_GAPDH_24hr: CellzDirect (CLD) Gene Expression Assay for Baseline Control (Glyceraldehyde 3-phosphate dehydrogenase) at 24 hours (AID 2283692)
Records with an inconclusive call do not appear. The source made the active and inactive calls. The calls were made as follows: active = hit-call score of the fitted dose curve at least 0.9, where 1 is the maximum; inconclusive = response in the unintended direction; inactive = score below 0.9.
observable: outcome

Examples from the recorded data:
structure-smiles | experimental-value
O=C(Nc1ccccc1)Nc1cnns1 | inactive
N#CN | inactive
O=S(=O)(O)C(F)(F)C(F)(F)C(F)(F)C(F)(F)C(F)(F)C(F)(F)C(F)(F)C(F)(F)F | inactive
Oc1ccc(Cl)cc1Cc1ccccc1 | inactive

Reported outcome, compound "COC(=O)c1ccccc1S(=O)(=O)NC(=O)Nc1nc(C)nc(OC)n1" : ____
inactive

Reported outcome, compound "COc1cc(OC)nc(NC(=O)NS(=O)(=O)c2cc(NC=O)ccc2C(=O)N(C)C)n1" : ____
inactive

Reported outcome, compound "CNC(=O)CSP(=S)(OC)OC" : ____
inactive

Reported outcome, compound "CC(C)N(C(=O)COc1nnc(C(F)(F)F)s1)c1ccc(F)cc1" : ____
inactive

====

# test-description: BSK_KF3CT_SRB: Viability Assessment in the BioMAP Diversity Plus: KF3CT Assay (AID 2283069);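 further: total protein by sulforhodamine B staining as a cytotoxicity measure; read 24 h after compound addition; fitted for both signal gain and loss against DMSO baseline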
# measurement-context: primary human keratinocytes with fibroblasts
The source made the active and inactive calls. How the source made its calls: active means hit-call score of the fitted dose curve at least 0.9, where 1 is the maximum; inactive means score below 0.9.
Bench note: report the call from active, inactive

State the result this test recorded for CC(C)(C)C(O)/C(=C\c1ccc(Cl)cc1Cl)n1cncn1 (configuration not stated) .
active

State the result this test recorded for "COc1nn(CSP(=S)(OC)OC)c(=O)s1" .
inactive

State the result this test recorded for "OCCOc1ccccc1" .
inactive

State the result this test recorded for "CCS(=O)(=O)c1cccnc1S(=O)(=O)NC(=O)Nc1nc(OC)cc(OC)n1" .
inactive

State the result this test recorded for "COP(=S)(OC)Oc1ccc(SC)c(C)c1" .
inactive

State the result this test recorded for CC[C@H](C)[C@H]1O[C@]2(C=C[C@@H]1C)C[C@@H]1C[C@@H](C/C=C(\C)[C@@H](O[C@H]3C[C@H](OC)[C@@H](O[C@H]4C[C@H](OC)[C@@H](O)[C@H](C)O4)[C@H](C)O3)[C@@H](C)/C=C/C=C3\CO[C@@H]4[C@H](O)C(C)=C[C@@H](C(=O)O1)[C@]34O)O2 (tested in a mixture with another compound) .
active

State the result this test recorded for CC1(C)C(C=C(Cl)Cl)C1C(=O)OC(C#N)c1ccc(F)c(Oc2ccccc2)c1 (configuration not stated) .
inactive

State the result this test recorded for "O=[N+]([O-])c1c(Cl)c(Cl)c(Cl)c(Cl)c1Cl" .
active

State the result this test recorded for CCOC1Oc2ccc(OS(C)(=O)=O)cc2C1(C)C (configuration not stated) .
inactive

State the result this test recorded for "COP(=O)(OC)OC=C(Cl)Cl" .
inactive

State the result this test recorded for "CCN(CC)C(=O)SCc1ccc(Cl)cc1" .
inactive

State the result this test recorded for CC1(c2ccc(Oc3ccccc3)cc2)OC(=O)N(Nc2ccccc2)C1=O (configuration not stated) .
inactive

====

# target-desc: Bile acid receptor (Homo sapiens)
# test-description: OT_FXR_FXRSRC1_1440: Odyssey Thera (OT) 24-hour HEK293T Protein-Complementation Assay for Farnesoid X receptor/SRC-1 Co-activator (AID 2283384)
Results filed as inconclusive are left out. Activity calls are given as the source filed them. How the source made its calls: active means hit-call score of the fitted dose curve at least 0.9, where 1 is the maximum; inconclusive means response in the unintended direction; inactive means score below 0.9.
Bench note: report the call from 1 (yes) = active, 0 (no) = inactive

State the result this test recorded for "CCC(C)(C)C(=O)OC1=C(c2ccc(Cl)cc2Cl)C(=O)OC12CCCCC2" .
1 (yes)

State the result this test recorded for "OCCOc1ccccc1" .
0 (no)

State the result this test recorded for "CCCN(CCOc1c(Cl)cc(Cl)cc1Cl)C(=O)n1ccnc1" .
1 (yes)

State the result this test recorded for "Cc1[nH]c(=O)n(C(C)(C)C)c(=O)c1Cl" .
0 (no)

State the result this test recorded for "COc1nn(CSP(=S)(OC)OC)c(=O)s1" .
0 (no)

State the result this test recorded for "CCN(CC)C(=O)SCc1ccc(Cl)cc1" .
0 (no)

State the result this test recorded for "CCc1ccc(C(=O)NN(C(=O)c2cc(C)cc(C)c2)C(C)(C)C)cc1" .
1 (yes)

State the result this test recorded for "O=C(Nc1ccccc1)Nc1cnns1" .
0 (no)

State the result this test recorded for "CN1CSC(=S)N(C)C1" .
0 (no)

====

# target-desc: Nuclear respiratory factor 1 (Homo sapiens)
# test-description: ATG_NRF1_CIS: Attagene CIS-FACTORIAL HepG2 Assay for human Nuclear Respiratory Factor 1 (NRF1) Orphan Gene (AID 2282987)
# measurement-context: HepG2 NRF1 cis-element reporter, Attagene multiplex; actives raise or lower the signal
Active and inactive are the calls of the source. How the source made its calls: active means hit-call score of the fitted dose curve at least 0.9, where 1 is the maximum; inactive means score below 0.9.
observable: outcome

Examples from the recorded data:
compound | outcome
O=C(O)C(F)(F)C(F)(F)C(F)(F)C(F)(F)C(F)(F)C(F)(F)C(F)(F)F | inactive
N#CN | inactive
O=C(NC(=O)c1c(F)cccc1F)Nc1ccc(OC(F)(F)C(F)OC(F)(F)F)c(Cl)c1 (stereo not drawn) | inactive
CNC(=O)CSP(=S)(OC)OC | inactive
COP(=S)(OC)Oc1ccc(SC)c(C)c1 | inactive
O=C(O)COc1ccc(Cl)cc1Cl | inactive

Reported outcome, compound "CNC(=O)Oc1ccccc1OC(C)C" : ____
inactive

Reported outcome, compound CC1(c2ccc(Oc3ccccc3)cc2)OC(=O)N(Nc2ccccc2)C1=O (stereo not drawn) : ____
inactive

Reported outcome, compound "O=C(O)CCCOc1ccc(Cl)cc1Cl" : ____
inactive

Reported outcome, compound "OCCOc1ccccc1" : ____
inactive

Reported outcome, compound CCC(C)(NC(=O)c1cc(Cl)c(C)c(Cl)c1)C(=O)CCl (stereo not drawn) : ____
inactive

Reported outcome, compound "COC(=O)c1ccccc1S(=O)(=O)NC(=O)N(C)c1nc(C)nc(OC)n1" : ____
inactive

Reported outcome, compound "CCC(C)(C)C(=O)OC1=C(c2ccc(Cl)cc2Cl)C(=O)OC12CCCCC2" : ____
inactive

====

# Read-out: Peroxisomal acyl-coenzyme A oxidase 1 (ACOX1) gene, ACOX1 (gene 51)
# test-description: LTEA_HepaRG_ACOX1: Life Technologies and Expression Analysis (LTEA) Assay for Peroxisomal acyl-coenzyme A oxidase 1 (ACOX1) gene using HepaRG (AID 2283467)
# measurement-context: mRNA level, 48 h; actives raise or lower the signal
Calls of active or inactive are those of the source. The calls were made as follows: active = hit-call score of the fitted dose curve at least 0.9, where 1 is the maximum; inactive = score below 0.9.
Bench note: report the call from class 1 = active, class 0 = inactive

State the result this test recorded for O=C(NC(=O)c1c(F)cccc1F)Nc1ccc(OC(F)(F)C(F)OC(F)(F)F)c(Cl)c1 (stereo unspecified) .
class 0

State the result this test recorded for "N#Cc1c(Cl)c(Cl)c(Cl)c(C#N)c1Cl" .
class 0

State the result this test recorded for "CCOCN(C(=O)CCl)c1c(C)cccc1CC" .
class 1

State the result this test recorded for "CCCN(CCOc1c(Cl)cc(Cl)cc1Cl)C(=O)n1ccnc1" .
class 1

State the result this test recorded for "COc1nn(CSP(=S)(OC)OC)c(=O)s1" .
class 0

State the result this test recorded for "CCCN(CCC)c1c([N+](=O)[O-])cc(C(F)(F)F)cc1[N+](=O)[O-]" .
class 0

State the result this test recorded for "CNC(=O)Oc1cccc(N=CN(C)C)c1" .
class 0

State the result this test recorded for "Oc1cc(Cl)ccc1Oc1ccc(Cl)cc1Cl" .
class 0

State the result this test recorded for O=S1OCC2C(CO1)C1(Cl)C(Cl)=C(Cl)C2(Cl)C1(Cl)Cl (stereo unspecified) .
class 1

State the result this test recorded for CC1(C)C(C=C(Cl)Cl)C1C(=O)OC(C#N)c1ccc(F)c(Oc2ccccc2)c1 (stereo unspecified) .
class 0

State the result this test recorded for CCC(C)Nc1c([N+](=O)[O-])cc(C(C)(C)C)cc1[N+](=O)[O-] (stereo unspecified) .
class 0

State the result this test recorded for "CCC(C)(C)C(=O)OC1=C(c2ccc(Cl)cc2Cl)C(=O)OC12CCCCC2" .
class 0

State the result this test recorded for "O=C(O)CCCOc1ccc(Cl)cc1Cl" .
class 1

State the result this test recorded for CCOC1Oc2ccc(OS(C)(=O)=O)cc2C1(C)C (stereo unspecified) .
class 1

State the result this test recorded for CC[C@H](C)[C@H]1O[C@]2(C=C[C@@H]1C)C[C@@H]1C[C@@H](C/C=C(\C)[C@@H](O[C@H]3C[C@H](OC)[C@@H](O[C@H]4C[C@H](OC)[C@@H](O)[C@H](C)O4)[C@H](C)O3)[C@@H](C)/C=C/C=C3\CO[C@@H]4[C@H](O)C(C)=C[C@@H](C(=O)O1)[C@]34O)O2 (tested in a mixture with another compound) .
class 1

State the result this test recorded for "O=C(Nc1ccccc1)Nc1cnns1" .
class 1

State the result this test recorded for "O=[N+]([O-])/N=C1\NCCN1Cc1ccc(Cl)nc1" .
class 1

State the result this test recorded for "C[C@H]1[C@H](c2ccc(Cl)cc2)SC(=O)N1C(=O)NC1CCCCC1" .
class 0

State the result this test recorded for "COP(=S)(OC)Oc1ccc([N+](=O)[O-])cc1" .
class 0

State the result this test recorded for "CC(C)OC(=O)Nc1cccc(Cl)c1" .
class 0

State the result this test recorded for "Clc1ccccc1-c1nnc(-c2ccccc2Cl)nn1" .
class 0
